Attribution: patent US11866407B2

measurementType: IC50 (nM)
Give the number; nM is assumed, so skip it.

GET /values?item= CC(C)C[C@H](NC(=O)OCc1ccccc1)C(=O)N[C@@H](CC1CCNC1=O)C(O)S(=O)(=O)O (stereo partly shown) &system= cathepsin L (Homo sapiens) returns IC50: 4.4

----------
I'd be grateful if you could share measured CC50 for these entries.
- procedureSummary: in vitro
- conditionInfo: African green monkey

The measured CC50 associated with O=C(NC1CC1)C(=O)[C@H](C[C@@H]1CCNC1=O)NC(=O)C1[C@H]2CCC[C@H]2CN1C(=O)OCc1ccccc1 (stereo partly drawn) reads > 250 µM

Given item CC1(C)[C@@H]2C(C(=O)N[C@@H](C[C@@H]3CCNC3=O)C(=O)C(=O)NC3CC3)N(C(=O)OCc3ccccc3)C[C@@H]21 (stereo partly drawn) , the value recorded as its CC50 is > 250 µM

# molecule CC(C)C[C@H](NC(=O)OCC1CCC(F)(F)CC1)C(=O)N[C@@H](C[C@@H]1CCNC1=O)C(=O)C(=O)NC1CC1 ; its CC50 = > 250 µM
